# Tested on: Anxiety in the Adult Male Rat
# experimentalProtocol: Suppression of Anxiety in the Adult Male Rat (rat conflict test)
# Assay type: in vivo, rats
# settings: Rattus norvegicus, po, rat, po; read-out: Rat Conflict (MED, mg/kg) po
metric: minimal effective dose (mg/kg)
Entry rule: numbers only, all in mg/kg.

{"compound": "COCCOCN1C2=C(C(=O)Nc3ccccc3F)C(=O)CCN2c2ccc(F)cc21 [Compound 159]", "experimentalResult": 3}
{"compound": "CCOCN1C2=C(C(=O)Nc3ccc(F)cc3F)C(=O)CCN2c2ccc(F)cc21 [Compound 123]", "experimentalResult": 0.1}
{"compound": "COCN1C2=C(C(=O)Nc3ccccc3F)C(=O)CCN2c2ccc(F)cc21 [Compound 158]", "experimentalResult": 3}

// query Suppose we examine the compound COCCN1C2=C(C(=O)Nc3ncc(C)s3)C(=O)CCN2c2ccccc21 [Compound 98] ; what minimal effective dose value has been reported?
// result 3

The measurements presented in this section are drawn from patent EP1420018A1.
